- EXPERIMENTAL TARGET: HLA-A*0201 (human)
- EXPERIMENTAL PROTOCOL: competition with 125I-labelled standard peptide 941.01 ([..]) for purified HLA-A*0201, gel filtration
ASSAY METRIC: binding affinity ratio (IC50 of standard peptide / IC50 of test peptide)
Answers are plain numbers.

BINDER	DATA VALUE
VASRGRAV (modifications not checked) [PSA peptide VASRGRAV (position 38, 8 amino acids)]	-0.0001

For every record below, what is its binding affinity ratio (IC50 of standard peptide / IC50 of test peptide)?
1. TLPSWATEDT (modifications not checked) [PAP peptide … (position 222, 10 amino acids)]
2. SVTWIGAAPL (modifications not checked) [PSA peptide … (position 7, 10 amino acids)]
3. VAQVRGGMV (modifications not checked) [PSM peptide … (position 576, 9 amino acids)]
4. SVTWIGAAPLI (modifications not checked) [PSA peptide … (position 7, 11 amino acids)]

1. 0.0002
2. 0.0001
3. 0.0002
4. 0.0001
